target: CXCR1 (UniProt P25024)
Sequence (P25024 whole entry): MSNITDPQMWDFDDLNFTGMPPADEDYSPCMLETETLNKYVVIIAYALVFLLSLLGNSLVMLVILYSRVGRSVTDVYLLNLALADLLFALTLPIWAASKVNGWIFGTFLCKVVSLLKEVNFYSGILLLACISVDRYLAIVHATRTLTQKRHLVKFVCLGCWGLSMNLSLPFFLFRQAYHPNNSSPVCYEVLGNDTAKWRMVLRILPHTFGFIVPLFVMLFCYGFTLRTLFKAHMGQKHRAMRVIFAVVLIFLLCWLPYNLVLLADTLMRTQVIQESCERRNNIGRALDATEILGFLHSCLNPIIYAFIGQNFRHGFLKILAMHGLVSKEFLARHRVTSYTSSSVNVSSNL
assay details: flow cytometry, CXCR1-U2OS / parental U2OS
property name: CXCR1/Parental Ratio
Provide a numeric answer; units are not to be included.

Would you kindly share the measured CXCR1/Parental Ratio for VH4-34+CDR3-IL8_CDR1 Cow_CDR2 E50S / V1-47 IgG (antibody, part only; not given: V1-47 light chain, part only) VH: QVQLQQWGAGLLKPSETLSLTCTASGFSLSDKAVGWIRQPPGKGLEWIGSINHSGSTNYNPSLKSRVTISVDTSKNQFSLKLSSVTAADTAVYYCTSVHQETKKYQSPRSAKELRCQCIKTYSKPFHPKFIKELRVIESGPHCANTEIIVKLSDGRELCLDPKENWVQRVVEKFLKRAENSGSGSYTYNYEWHVDVWGQGLLVTVSSAS ?
2.6

What value of measured CXCR1/Parental Ratio is listed for VH4-34+CDR3-IL8_CDR2 Cow / V1-47 IgG (antibody, part only; not given: V1-47 light chain, part only) VH: QVQLQQWGAGLLKPSETLSLTCAVYGGSFSGYYWSWIRQPPGKGLEWLGSIDTGGNTGYNPSLKSRVTISVDTSKNQFSLKLSSVTAADTAVYYCTSVHQETKKYQSPRSAKELRCQCIKTYSKPFHPKFIKELRVIESGPHCANTEIIVKLSDGRELCLDPKENWVQRVVEKFLKRAENSGSGSYTYNYEWHVDVWGQGLLVTVSSAS ?
2.5

Look at this binder and give its reported CXCR1/Parental Ratio. VH4-34+CDR3-IL8_CDR1 G31D,Y32K / V1-47 IgG (antibody, part only; not given: V1-47 light chain, part only) VH: QVQLQQWGAGLLKPSETLSLTCAVYGGSFSDKYWSWIRQPPGKGLEWIGEINHSGSTNYNPSLKSRVTISVDTSKNQFSLKLSSVTAADTAVYYCTSVHQETKKYQSPRSAKELRCQCIKTYSKPFHPKFIKELRVIESGPHCANTEIIVKLSDGRELCLDPKENWVQRVVEKFLKRAENSGSGSYTYNYEWHVDVWGQGLLVTVSSAS
3.6
